Biological target: human NK3 receptor (Homo sapiens, UniProt P29371)
Construct: expressed in transfected cells; membranes prepared from them
Sequence (P29371 1-465): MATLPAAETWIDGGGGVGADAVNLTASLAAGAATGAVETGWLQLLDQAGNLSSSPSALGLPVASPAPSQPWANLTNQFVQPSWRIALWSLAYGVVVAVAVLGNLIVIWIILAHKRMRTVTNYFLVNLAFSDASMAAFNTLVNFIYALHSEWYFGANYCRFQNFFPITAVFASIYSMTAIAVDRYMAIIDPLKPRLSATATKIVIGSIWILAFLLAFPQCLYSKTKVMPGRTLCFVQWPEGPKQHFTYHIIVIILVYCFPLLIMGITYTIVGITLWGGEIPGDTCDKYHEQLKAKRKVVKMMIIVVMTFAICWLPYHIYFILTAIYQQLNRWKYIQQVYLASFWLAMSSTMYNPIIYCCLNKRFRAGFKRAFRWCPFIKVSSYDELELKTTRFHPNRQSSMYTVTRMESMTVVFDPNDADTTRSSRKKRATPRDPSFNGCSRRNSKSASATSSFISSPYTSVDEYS
Assay: NK3 receptor binding assay (SPA-based competition binding with 125I-NKB)
Details: read-out: Affinity Ki/nM
Experimental: Membrane preparation: BHK cells stably expressing the human NK3 receptor were seeded in harvesting plates in Dulbeccos MEM containing GlutaMax (862 mg/l), 1 mM sodium pyruvate, 10% fetal calf serum, 1% Pen/Strep, 1 mg/ml G418 and were grown at 34° C. in a humidified atmosphere containing 10% CO2. To increase receptor expression, 10 μM trichotatin A was added to the media 24 hours before harvest of the cells at a confluency of app 90%. […]
Measure Name: Ki (nM)

Before answering, review these 3 worked examples.
Cc1csc(-n2c(C)c(C(=O)N[C@H](c3cccc(F)c3)C3CC3)c3cccc(F)c3c2=O)n1; 150
CCc1nnc(-n2c(C)c(C(=O)N[C@H](c3cccc(F)c3)C3CC3)c3cccc(F)c3c2=O)s1; 210
Cc1ccc(-n2c(C)c(C(=O)N[C@H](c3cccc(F)c3)C3CC3)c3cccc(F)c3c2=O)cn1; 220

(a) Cc1c(C(=O)N[C@H](c2cccc(F)c2)C2CC2)c2cccc(F)c2c(=O)n1-n1cnnc1
(b) O=C(N[C@H](c1cccc(F)c1)C1CC1)c1c(CN2CCCC2=O)n(-c2cccnc2)c(=O)c2c(F)cccc12
(c) Cc1c(C(=O)N[C@H](c2cccc(F)c2)C2CCC2)c2cc(F)cc(F)c2c(=O)n1-c1cccnc1
(d) Cc1c(C(=O)N[C@H](c2cccc(F)c2)C2CCC2)c2cccc(F)c2c(=O)n1-c1ccn(C)n1
(e) Cc1c(C(=O)N[C@H](c2cccc(F)c2)C2CC2)c2cccc(O)c2c(=O)n1-c1cccnc1
*Q* Please list these in order of increasing Ki. Thank you! Form entry: ranked labels (order as requested).
*A* c, e, d, b, a
(c: 15 nM, e: 33 nM, d: 71 nM, b: 110 nM, a: 200 nM)

* * *

Biological target: human NK3 receptor (Homo sapiens)
Construct: expressed in transfected cells; membranes prepared from them
Sequence (P29371 1-465): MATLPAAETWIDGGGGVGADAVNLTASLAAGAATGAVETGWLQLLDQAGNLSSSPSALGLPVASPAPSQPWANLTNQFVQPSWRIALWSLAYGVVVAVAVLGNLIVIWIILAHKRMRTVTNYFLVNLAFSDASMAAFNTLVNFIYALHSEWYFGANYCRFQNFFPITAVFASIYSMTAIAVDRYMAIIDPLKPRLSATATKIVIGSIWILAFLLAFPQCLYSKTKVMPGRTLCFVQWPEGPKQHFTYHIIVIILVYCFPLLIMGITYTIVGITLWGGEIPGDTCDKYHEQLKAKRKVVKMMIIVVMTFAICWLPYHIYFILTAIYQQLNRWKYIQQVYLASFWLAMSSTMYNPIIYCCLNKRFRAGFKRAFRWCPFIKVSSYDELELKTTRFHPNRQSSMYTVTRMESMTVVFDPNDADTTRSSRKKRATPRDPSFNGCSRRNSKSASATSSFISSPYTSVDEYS
Test: NK3 receptor binding assay (SPA-based competition binding with 125I-NKB)
Settings: read-out: Affinity Ki/nM
Measure Name: Ki (nM)

Cc1c(C(=O)N[C@H](c2ccccc2)C2CCC2)c2cccc(F)c2c(=O)n1-c1cccnc1; 18
Cc1c(C(=O)N[C@H](c2cccc(F)c2)C2CC2)c2cccc(F)c2c(=O)n1-c1cncnc1; 110
Cc1c(C(=O)N[C@H](c2cccc(F)c2)C2CC2)c2cccc(F)c2c(=O)n1-c1ccc(Cl)nc1; 120

(a) Cc1c(C(=O)N[C@H](c2cccc(F)c2)C2CC2)c2cccc(F)c2c(=O)n1-n1cccc1
(b) CC(C)(C)N1CCN(Cc2c(C(=O)N[C@H](c3cccc(F)c3)C3CC3)c3cccc(F)c3c(=O)n2-c2cccnc2)CC1
(c) Cc1c(C(=O)N[C@H](c2cccc(F)c2)C2CC2)c2cccc(F)c2c(=O)n1-c1ccccn1
*Q* # rank_down: sort by Ki, max first Form entry: ranked labels (order as requested).
*A* c, a, b
